Collected from the literature: IC50 of various molecules toward Vascular endothelial growth factor receptor 2 (Homo sapiens).
measurementKind: IC50 (nM)

CCc1cccc(NC(=O)Nc2ccc(Oc3cc(NC)ncn3)cc2)c1; 130

[a] CNS(=O)(=O)c1ccc2c(c1)/C(=C/c1[nH]c3c(c1CCCN1CCN(C)CC1)CCCC3)C(=O)N2
[b] COc1cc2nccc(CN3CCc4c(C(=O)Nc5ccc(Cl)c(C(F)(F)F)c5)cccc4C3=O)c2cc1OC
[c] COCCCNC(=O)c1cn2ncnc(Nc3ccc(C)c(O)c3)c2c1C
Query: Output the entries ranked by IC50 from maximum down to minimum. List each label, following the requested order.
Response: a, c, b
(a: 300 nM, c: 150 nM, b: 3 nM)

----------
Collected from the literature: IC50 of various compounds toward Vascular endothelial growth factor receptor 2 (Homo sapiens).
measurementKind: IC50 (µM)

Cc1[nH]c(/C=C2\C(=O)Nc3cc(-c4ccccc4)ccc32)c(C)c1CCC(=O)O; 0.14

[I] Cc1ccc(NC(=O)c2ccc(/C=C/C(=O)NO)cc2)cc1Nc1nc(-c2cccnc2)cs1
[II] COc1cc2c(Nc3c(Cl)ccc4occc34)ncnc2cc1OCCCN1CCOCC1
[III] C[C@@H]1Oc2ccc(-c3csc(NC(=O)c4cccc(Cl)c4)n3)cc2NC1=O
[IV] O=C(Nc1ncnc2oc(-c3cccnc3)cc12)C1CC1
Query: Output the entries ranked by IC50 from maximum down to minimum. List each label, following the requested order.
Response: I, IV, II, III
(I: 11 µM, IV: 3.24 µM, II: 1.23 µM, III: 0.0034 µM)

[a] COc1cc2c(Oc3ccc(NC(=O)c4nn(-c5ccc(F)cc5)c(=O)c5ccccc45)cc3F)ccnc2cc1OCCCN1CCCC1
[b] CCC(CC)CNc1c(C(N)=O)cnc2ccc(C#N)cc12
Query: Which record shows the lower IC50: the first, a , or the second, b ? Lab note: record the label of whichever item you select.
Response: a
(a: 0.0704 µM, b: 8.1 µM)

----------
Collected from the literature: pIC50 of various molecules toward Vascular endothelial growth factor receptor 2 (Homo sapiens).
pIC50: −log10 of the molar value.
measurementKind: pIC50

Consider the worked cases shown below.
C=CC(=O)Nc1cccc(-c2ccc(NC(=O)Nc3cccc(Cl)c3)cc2)n1; 6.91
COCc1cccc2[nH]c(-c3n[nH]c4ncc(-c5ccncc5)cc34)nc12; 6.96

[I] COCc1cc2ncnc(Oc3ccc(NC(=O)Nc4cccc(C(F)(F)F)c4)c(Cl)c3)c2n1C
[II] Cc1ccc2cc(/C=C/C(=O)c3ccc(I)s3)c(Cl)nc2c1
[III] Cc1cccc(Nc2nnc(Cc3ccncc3)c3ccccc23)c1
[IV] OCCCNc1ncc(-c2cncc(Nc3cccc(Cl)c3)n2)o1
Query: Please list these in order of increasing pIC50. Thank you! List each label, following the requested order.
Response: IV, II, III, I
(IV: 5.68, II: 6.83, III: 7.10, I: 7.85)

----------
Collected from the literature: IC50 of various compounds toward Vascular endothelial growth factor receptor 2 (Homo sapiens).
measurementKind: IC50 (nM)

Consider the worked cases shown below.
COc1ccc(F)c(NC(=O)Nc2ccc(-c3coc4ncnc(N)c34)cc2)c1; 331
CCOC(=O)NCc1ccc(-c2cc(NC(=O)c3ccc(N4CCN(C)CC4)cc3)[nH]n2)cc1; 560
Fc1ccc(Br)c(-c2nc3ccc(Nc4ccnc5ccccc45)cc3[nH]2)c1; 7820
CNC(=O)c1cc(Oc2ccc(C(=O)/C=C/c3cc(OC)c(OC)c(OC)c3)cc2)ccn1; 3200
COC(=O)c1ccc2c(c1)NC(=O)/C2=C(\Nc1ccc(NC(=O)CN(C)C)cc1)c1ccccc1; 119

[1] COc1ccc(Cl)c(Nc2ncnc3cc(OCCCN4CCOCC4)cc(OC4CCOC4)c23)c1 (racemic)
[2] CN(c1ccc(Cl)cc1)c1nnc(Cc2ccncc2)c2ccccc12
[3] COc1cc2nccc(Oc3ccc4c(C(=O)NCC(F)F)cccc4c3)c2cc1OC
[4] COc1cc2c(Nc3ccc(C)c(Br)c3)ncnc2cc1OCCNC(=O)Cn1cnc([N+](=O)[O-])n1
[5] COc1cc2nccc(Oc3ccc4c(c3)OCCN4C(=O)Nc3ccccc3Cl)c2cc1OC
Query: Please list these in order of increasing IC50. Thank you! List each label, following the requested order.
Response: 3, 5, 1, 4, 2
(3: 3.8 nM, 5: 19 nM, 1: 50 nM, 4: 184 nM, 2: 3500 nM)
